target: soluble human BACE1 catalytic domain (Homo sapiens (Human), UniProt P56817)
Sequence (P56817 75-416): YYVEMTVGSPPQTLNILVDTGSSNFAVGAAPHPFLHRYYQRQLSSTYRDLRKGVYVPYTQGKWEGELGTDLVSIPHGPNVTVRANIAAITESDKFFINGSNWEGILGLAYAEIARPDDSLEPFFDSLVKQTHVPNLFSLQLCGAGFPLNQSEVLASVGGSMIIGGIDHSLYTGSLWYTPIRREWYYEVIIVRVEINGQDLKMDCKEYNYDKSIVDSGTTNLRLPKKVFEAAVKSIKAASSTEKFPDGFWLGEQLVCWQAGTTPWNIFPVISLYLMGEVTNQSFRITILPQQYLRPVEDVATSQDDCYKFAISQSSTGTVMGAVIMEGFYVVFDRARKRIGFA
Field 'label' (enum: fulfilled / not fulfilled). Set to fulfilled when Ki is strictly under 90 nM; else not fulfilled.

Data request: Find out if reported Ki for C#CCOc1cnc(C(=O)Nc2ccc3c(c2)[C@]2(CCO3)CS(=O)(=O)N(C)C(=N)N2)cn1 is less than 90 nM
Data returned: fulfilled

Data request: Find out if reported Ki for CN1C(=N)N[C@@]2(CCCc3ccc(NC(=O)c4cnc(OCC(F)(F)F)cn4)cc32)CS1(=O)=O is less than 90 nM
Data returned: fulfilled

Data request: Find out if reported Ki for C#CCOc1ccc(C(=O)Nc2ccc3c(c2)[C@]2(CCO3)CS(=O)(=O)N(C)C(=N)N2)nc1 is less than 90 nM
Data returned: fulfilled

---
Data request: Find out if reported Ki for CN1C(=N)N[C@@]2(CCCc3ccc(NC(=O)c4ccc(OC(F)F)cn4)cc32)CS1(=O)=O is less than 90 nM
Data returned: fulfilled

Data request: Find out if reported Ki for COCC(=O)Nc1ccc2c(c1)[C@]1(CCC2)CS(=O)(=O)N(C)C(=N)N1 is less than 90 nM
Data returned: not fulfilled

Data request: Find out if reported Ki for CN1C(=N)N[C@@]2(CCCc3ccc(NC(=O)c4cc5ccccn5n4)cc32)CS1(=O)=O is less than 90 nM
Data returned: not fulfilled

Data request: Find out if reported Ki for COc1cnc(C(=O)Nc2ccc3c(c2)[C@]2(CCC3)CS(=O)(=O)N(C)C(=N)N2)c(C)c1 is less than 90 nM
Data returned: not fulfilled
